system-tested: Human PKMYT1 (Homo sapiens, UniProt Q99640)
Construct: Human PKMYT1 75-362 was cloned as a TEV cleavable 6xHis fusion; 6xHis (TEV cleavable) (cleaved yes); made in house; host or cells: bacterial cells
Sequence (Q99640 75-362): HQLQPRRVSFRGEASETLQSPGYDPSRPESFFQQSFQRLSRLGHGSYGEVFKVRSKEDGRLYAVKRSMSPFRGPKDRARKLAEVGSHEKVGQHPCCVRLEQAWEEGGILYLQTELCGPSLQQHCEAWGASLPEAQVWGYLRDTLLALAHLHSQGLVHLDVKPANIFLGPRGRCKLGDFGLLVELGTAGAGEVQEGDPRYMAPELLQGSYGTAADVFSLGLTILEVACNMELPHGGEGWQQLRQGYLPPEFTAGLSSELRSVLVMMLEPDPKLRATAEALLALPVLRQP
test: PKMYT1 biochemical ADP-Glo enzymatic assay
measurement-setup: ADP-Glo; 15 nM PKMYT1 kinase domain, 500 µM ATP, 60 minutes at 26° C.; banded
Structures can show the parent of a compound that is named as a salt.
IC50: recorded values

Below, each entry is followed by its recorded IC50 result.
Cc1nc(Nc2ncc(C(=O)Nc3c(C)ccc(O)c3C)s2)cc(N2CCN(CCO)CC2)n1    < 50 nM
Cc1ccc(O)c(C)c1NC(=O)c1cnc(Nc2ccn(CC(=O)N3C[C@@H]4C[C@H]3CN4C)n2)s1 [BAA-172, (hydrochloride)]    < 50 nM
Cc1ccc(O)c(C)c1NC(=O)c1cnc(Nc2cccc(S(=O)(=O)C(F)(F)F)c2)s1    1000 to 11000 nM
Cc1ccc(O)c(C)c1NC(=O)c1cnc(Nc2nncs2)s1    < 50 nM
CCNC(=O)Cn1cc(C)c(Nc2ncc(C(=O)Nc3c(C)ccc(O)c3C)s2)n1    < 50 nM

Entry Cc1ccc(O)c(C)c1NC(=O)c1cnc(Nc2cccc(N3CCC(F)(F)CC3)n2)s1 , IC50 reported as 50 to 1000 nM

Entry Cc1ccc(O)c(C)c1NC(=O)c1cnc(Nc2ccn(CC(=O)N3CCC[C@@H](O)C3)n2)s1 , IC50 reported as < 50 nM

Entry Cc1ccc(O)c(C)c1NC(=O)c1cnc(Nc2c3cnccc3nn2C)s1 , IC50 reported as < 50 nM

----------
system-tested: WEE1 (Homo sapiens, UniProt P30291)
Construct: purchased Thermo Fisher PR7373A
Sequence (P30291 whole entry): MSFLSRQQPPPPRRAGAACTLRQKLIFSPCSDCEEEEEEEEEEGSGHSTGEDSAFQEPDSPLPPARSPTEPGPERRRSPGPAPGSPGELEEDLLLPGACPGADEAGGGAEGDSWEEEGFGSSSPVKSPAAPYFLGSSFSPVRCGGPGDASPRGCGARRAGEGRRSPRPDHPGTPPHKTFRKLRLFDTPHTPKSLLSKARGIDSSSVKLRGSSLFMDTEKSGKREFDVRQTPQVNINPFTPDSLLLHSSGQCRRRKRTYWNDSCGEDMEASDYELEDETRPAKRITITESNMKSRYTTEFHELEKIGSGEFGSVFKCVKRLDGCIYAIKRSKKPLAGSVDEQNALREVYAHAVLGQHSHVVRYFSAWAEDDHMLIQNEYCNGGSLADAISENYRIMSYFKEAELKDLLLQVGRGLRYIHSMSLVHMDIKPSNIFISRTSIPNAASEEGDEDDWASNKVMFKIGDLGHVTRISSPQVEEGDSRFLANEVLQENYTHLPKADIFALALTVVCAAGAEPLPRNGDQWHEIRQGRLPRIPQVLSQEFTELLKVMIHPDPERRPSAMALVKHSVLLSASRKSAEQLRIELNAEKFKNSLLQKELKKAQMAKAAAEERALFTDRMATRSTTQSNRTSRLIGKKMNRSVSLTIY
test: Selectivity versus WEE1 assay (ADP-Glo enzymatic assay)
Format: biochemical
measurement-setup: ADP-Glo; 15 nM WEE1, 60 minutes at 26° C.; banded
Method: Selectivity versus WEE1 assay: Selectivity was established using the same format as outlined for PKMYT1. […] After 60 minutes the luminescence signal was read on a PHERAStar FS microplate reader (BMG Labtech). Data analysis: Data was captured and analysed within the Dotmatics Studies software module where dose response curves were generated and IC50 values determined. […]
assay-readout: IC50

Below, each entry is followed by its recorded IC50 result.
Cc1ccc(O)c(C)c1NC(=O)c1cnc(Nc2ccn(CC(=O)N3CCN(CCO)CC3)n2)s1    > 11 µM
Cc1ccc(O)c(C)c1NC(=O)c1cnc(Nc2nc(C(F)(F)F)cs2)s1    > 11 µM

Entry Cc1ccc(O)c(C)c1NC(=O)c1cnc(Nc2c3cnccc3nn2C)s1 , IC50 reported as 1 to 11 µM

Entry CNC(=O)Cn1ccc(Nc2ncc(C(=O)Nc3c(C)ccc(O)c3C)s2)n1 , IC50 reported as > 11 µM

Entry Cc1ccc(O)c(C)c1NC(=O)c1cnc(Nc2ncn(C)n2)s1 , IC50 reported as > 11 µM

----------
Tested on: OVCAR 3 cells
test: Cancer cell line proliferation assay, ATP-based cell viability (Cell Titre Glow), OVCAR 3 (CCNE1-amplified)
measurement-setup: KYSE30 (normal CCNE1) GI50 vs. OVCAR 3 (CCNE1-amplified) GI50
assay-readout: Selectivity ratio KYSE30 Gl50 vs. OVCAR3 Gl50

Below, each entry is followed by its recorded Selectivity ratio KYSE30 Gl50 vs. OVCAR3 Gl50 result.
Cc1cn(-c2cnn(C(C)C)c2)nc1Nc1ncc(C(=O)Nc2c(C)ccc(O)c2C)s1    Y (>20 fold)
Cc1cn(-c2ccn(C)n2)nc1Nc1ncc(C(=O)Nc2c(C)ccc(O)c2C)s1    Y (>20 fold)
Cc1ccc(O)c(C)c1NC(=O)c1cnc(Nc2ncnc3sccc23)s1    Y (>20 fold)
Cc1ccc(O)c(C)c1NC(=O)c1cnc(Nc2cccc(N3CCC(F)(F)CC3)n2)s1    Y (>20 fold)
Cc1ccc(O)c(C)c1NC(=O)c1cnc(Nc2cccc(N3CCN(CCO)CC3)n2)s1    Y (>20 fold)
Cc1cc(Nc2ncc(C(=O)Nc3c(C)ccc(O)c3C)s2)nc(NCCC(C)(C)C)n1    Y (>20 fold)
Cc1cn(CC(=O)N(C)C2CC2)nc1Nc1ncc(C(=O)Nc2c(C)ccc(O)c2C)s1    Y (>20 fold)
CCN(CC)C(=O)Cn1cc(C)c(Nc2ncc(C(=O)Nc3c(C)ccc(O)c3C)s2)n1    Y (>20 fold)
CCN(C(=O)Cn1cc(C)c(Nc2ncc(C(=O)Nc3c(C)ccc(O)c3C)s2)n1)C1CC1    Y (>20 fold)
Cc1ccc(O)c(C)c1NC(=O)c1cnc(Nc2cc(C)n(C3CCCC3)n2)s1    Y (>20 fold)

Entry Cc1cn(S(=O)(=O)c2ccccc2)nc1Nc1ncc(C(=O)Nc2c(C)ccc(O)c2C)s1 , Selectivity ratio KYSE30 Gl50 vs. OVCAR3 Gl50 reported as X (3-20 fold)

Entry Cc1cn(-c2ccccc2)nc1Nc1ncc(C(=O)Nc2c(C)ccc(O)c2C)s1 , Selectivity ratio KYSE30 Gl50 vs. OVCAR3 Gl50 reported as Y (>20 fold)
